Data origin: patent US11649460B2

# pIC50 values compiled below
System: HCT 116 human colorectal carcinoma
Experiment: SRB cell proliferation (cytotoxicity) assay, HCT 116
Settings: read-out: IC50: Concentration to inhibit 50% of cell growth; HCT 116
Source text: The XLSTAT software was used to determine the IC50, TGI and LC50 values using the four-parameter logistic curve equation.
# pIC50 = -log10(concentration in molar units)

Some molecules with recorded pIC50:
molecule="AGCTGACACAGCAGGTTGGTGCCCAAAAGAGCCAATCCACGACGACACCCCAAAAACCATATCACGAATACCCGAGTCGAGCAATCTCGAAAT (nucleic acid, chemistry not given here) DNA: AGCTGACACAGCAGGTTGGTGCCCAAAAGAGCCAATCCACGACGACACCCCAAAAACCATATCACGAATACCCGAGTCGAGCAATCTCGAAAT" data_value=4.70
molecule="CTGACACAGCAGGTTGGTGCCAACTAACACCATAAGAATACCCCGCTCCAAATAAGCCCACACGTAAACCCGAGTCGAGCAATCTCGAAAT (nucleic acid, chemistry not given here, DNA aptamer that recognizes human galectin-1) DNA: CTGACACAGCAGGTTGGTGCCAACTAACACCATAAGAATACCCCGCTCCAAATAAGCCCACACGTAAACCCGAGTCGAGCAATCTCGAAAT" data_value=4.77
molecule="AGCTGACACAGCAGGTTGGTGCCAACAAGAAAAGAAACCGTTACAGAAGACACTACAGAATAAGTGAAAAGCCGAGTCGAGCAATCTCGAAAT (nucleic acid, chemistry not given here) DNA: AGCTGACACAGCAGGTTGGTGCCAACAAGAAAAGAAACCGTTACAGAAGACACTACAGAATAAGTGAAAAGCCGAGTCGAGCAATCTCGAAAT" data_value=4.69

Let us move to another entry and its pIC50.
Ask | Return reported pIC50; argument: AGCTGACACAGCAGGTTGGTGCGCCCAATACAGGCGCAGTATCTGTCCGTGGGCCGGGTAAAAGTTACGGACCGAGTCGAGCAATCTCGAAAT (nucleic acid, chemistry not given here) DNA: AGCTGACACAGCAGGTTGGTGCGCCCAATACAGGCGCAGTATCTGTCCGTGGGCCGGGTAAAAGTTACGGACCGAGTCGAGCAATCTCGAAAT
Reply | 4.80
